- System: KB cells
- condition_notes: 2 h
I'd be grateful if you could share measured log10(EC50) for these entries.
Scale: decimal log of EC50, EC50 in nM.

Q: Could you tell me which log10(EC50) is on file for CC[C@H]1c2cc3[nH]c4c(c3C)C(=O)C(C(=O)OC)c4c3nc(cc4[nH]c(cc(n2)[C@@H]1C)c(C(C)=O)c4C)[C@@H](C)[C@@H]3CCC(=O)NCCSSC[C@H](NC(=O)[C@H](CC(=O)NCCS(=O)(=O)O)NC(=O)[C@H](CC(=O)NCCS(=O)(=O)O)NC(=O)CC[C@H](NC(=O)c1ccc(NCc2cnc3nc(N)[nH]c(=O)c3n2)cc1)C(=O)O)C(=O)O (some centres unmarked) ?
Ans: 1.66

Q: Same thing, different compound: CC[C@H]1c2cc3[nH]c4c(c3C)C(=O)C(C(=O)OC)c4c3nc(cc4[nH]c(cc(n2)[C@@H]1C)c(C(C)=O)c4C)[C@@H](C)[C@@H]3CCC(=O)NCCCC(C(=O)NCCSSC[C@H](NC(=O)[C@H](CC(=O)NCCS(=O)(=O)O)NC(=O)CC[C@H](NC(=O)c1ccc(NCc2cnc3nc(N)[nH]c(=O)c3n2)cc1)C(=O)O)C(=O)O)[N+](C)(C)C (some centres unmarked)
Ans: 1.11

Q: Further, for CC[C@H]1c2cc3[nH]c4c(c3C)C(=O)C(C(=O)OC)c4c3nc(cc4[nH]c(cc(n2)[C@@H]1C)c(C(C)=O)c4C)[C@@H](C)[C@@H]3CCC(=O)NCCNC(=O)OCCSSC[C@H](NC(=O)[C@H](CC(=O)NCCS(=O)(=O)O)NC(=O)CC[C@H](NC(=O)c1ccc(NCc2cnc3nc(N)[nH]c(=O)c3n2)cc1)C(=O)O)C(=O)O (some centres unmarked) [Compound 65c] ?
Ans: 1.06

Q: Another compound: CC[C@H]1c2cc3[nH]c(c(CC(=O)OC)c4nc(cc5[nH]c(cc(n2)[C@@H]1C)c(C(C)=O)c5C)[C@@H](C)[C@@H]4CCC(=O)NCCSSC[C@H](NC(=O)[C@H](CC(=O)NCCS(=O)(=O)O)NC(=O)CC[C@H](NC(=O)c1ccc(NCc2cnc4nc(N)[nH]c(=O)c4n2)cc1)C(=O)O)C(=O)O)c(C(=O)N[N+](C)(C)C)c3C
Ans: 2.20

Q: // same read-out, input: CC[C@H]1c2cc3[nH]c4c(c3C)C(=O)C(C(=O)OC)c4c3nc(cc4[nH]c(cc(n2)[C@@H]1C)c(C(C)=O)c4C)[C@@H](C)[C@@H]3CCC(=O)N[C@@H](CCC(=O)NCCS(=O)(=O)O)C(=O)NCCNC(=O)OCCSSC[C@H](NC(=O)[C@H](CC(=O)NCCS(=O)(=O)O)NC(=O)CC[C@H](NC(=O)c1ccc(NCc2cnc3nc(N)[nH]c(=O)c3n2)cc1)C(=O)O)C(=O)O (some centres unmarked)
Ans: 2.73

Q: Would you mind doing CC[C@H]1c2cc3[nH]c4c(c3C)C(=O)C(C(=O)OC)c4c3nc(cc4[nH]c(cc(n2)[C@@H]1C)c(C(C)=O)c4C)[C@@H](C)[C@@H]3CCC(=O)NNC(=O)OCCSSC[C@H](NC(=O)CCOCCOCCOCCOCCOCCOCCNC(=O)CC[C@H](NC(=O)c1ccc(NCc2cnc3nc(N)[nH]c(=O)c3n2)cc1)C(=O)O)C(=O)O (single isomer, unassigned) [Compound 76b] as well?
Ans: 2.51

Q: Now this one: CC[C@H]1c2cc3[nH]c4c(c3C)C(=O)C(C(=O)OC)c4c3nc(cc4[nH]c(cc(n2)[C@@H]1C)c(C(C)=O)c4C)[C@@H](C)[C@@H]3CCC(=O)NC(CC(=O)NC1C(O)OC(CO)C(O)C1O)C(=O)NNC(=O)OCCSSC[C@H](NC(=O)[C@H](CC(=O)NCCS(=O)(=O)O)NC(=O)CC[C@H](NC(=O)c1ccc(NCc2cnc3nc(N)[nH]c(=O)c3n2)cc1)C(=O)O)C(=O)O (some centres unmarked) [Compound 92a]
Ans: 1.52

Q: Next: CC[C@H]1c2cc3[nH]c(c(CC(=O)OC)c4nc(cc5[nH]c(cc(n2)[C@@H]1C)c(C(C)=O)c5C)[C@@H](C)[C@@H]4CCC(=O)NNC(=O)OCCSSC[C@H](NC(=O)CCOCCOCCOCCOCCOCCOCCOCCOCCNC(=O)CC[C@H](NC(=O)c1ccc(NCc2cnc4nc(N)[nH]c(=O)c4n2)cc1)C(=O)O)C(=O)O)c(C(=O)NCCOCCOCCO)c3C [Compound 88a]
Ans: 1.54

Q: Param item: CC[C@@H]1c2cc3[nH]c4c(c3C)C(=O)C(C(=O)OC)c4c3nc(cc4[nH]c(cc(n2)[C@H]1C)c(C(C)=O)c4C)[C@H](C)[C@H]3CCC(=O)NCCC[C@@H](C(=O)NNC(=O)OCCSSC[C@H](NC(=O)[C@H](CC(=O)NCCS(=O)(=O)O)NC(=O)CC[C@H](NC(=O)c1ccc(NCc2cnc3nc(N)[nH]c(=O)c3n2)cc1)C(=O)O)C(=O)O)[N+](C)(C)C (some centres unmarked) [Compound 89a]
Ans: 0.57

Q: # repeat for CC[C@H]1c2cc3[nH]c4c(c3C)C(=O)C(C(=O)OC)c4c3nc(cc4[nH]c(cc(n2)[C@@H]1C)c(C(C)=O)c4C)[C@@H](C)[C@@H]3CCC(=O)NCCCC(NC(=O)c1ccc(N(C)Cc2cnc3nc(N)nc(N)c3n2)cc1)C(=O)NNC(=O)OCCSSC[C@H](NC(=O)[C@H](CC(=O)NCCS(=O)(=O)O)NC(=O)CC[C@H](NC(=O)c1ccc(NCc2cnc3nc(N)[nH]c(=O)c3n2)cc1)C(=O)O)C(=O)O (some centres unmarked)
Ans: 3.45

Q: And CC[C@H]1c2cc3[nH]c(c(CC(=O)OC)c4nc(cc5[nH]c(cc(n2)[C@@H]1C)c(C(C)=O)c5C)[C@@H](C)[C@@H]4CCC(=O)NNC(=O)OCCSSC[C@H](NC(=O)CCOCCOCCOCCOCCOCCOCCNC(=O)CC[C@H](NC(=O)c1ccc(NCc2cnc4nc(N)[nH]c(=O)c4n2)cc1)C(=O)O)C(=O)O)c(C(=O)N[N+](C)(C)C)c3C [Compound 87b] ?
Ans: 3.78
